src = ChEMBL document CHEMBL3259741

System: COLO 205
Test Details: Cytotoxicity against human COLO205 cells after 48 hrs by MTT assay
Format: functional, cell-based
Test Conditions: COLO 205, 48 h
Readout Type: IC50
Please answer using a numeric value trailed by its unit.

Reference set, count: 5
1. CC(=O)O[C@@H]1C[C@@]2(C)[C@@H]3CC=C4[C@@H](C[C@H](O[C@@H]5O[C@H](CO)[C@@H](O)[C@H](O)[C@H]5O)[C@@H](O)C4(C)C)[C@]3(C)C(=O)C[C@]2(C)[C@H]1C(C)(O)C(=O)/C=C/C(C)(C)OC(C)=O (stereo partly specified)	24.9 µg/mL
2. CC(=O)O[C@@H]1C[C@@]2(C)[C@@H]3CC=C4[C@@H](C[C@H](O)[C@@H](O)C4(C)C)[C@]3(C)C(=O)C[C@]2(C)[C@H]1C(C)(O)C(=O)/C=C/C(C)(C)O (stereo partly specified)	0.44 µg/mL
3. CC(C)(O)CCC(=O)[C@](C)(O)[C@H]1[C@H](O)C[C@@]2(C)[C@@H]3CC=C4[C@@H](C[C@H](O)[C@@H](O)C4(C)C)[C@]3(C)C(=O)C[C@]12C	0.64 µg/mL
4. C/C(C=O)=C\CC[C@@H](C)[C@H]1CC[C@@]2(C)[C@@H]3CC=C4[C@@H](CC[C@H](O[C@@H]5O[C@H](CO)[C@@H](O)[C@H](O)[C@H]5O)C4(C)C)[C@]3(C)C(=O)C[C@]12C	0.78 µg/mL
5. CC(=O)OC(C)(C)CCC(=O)[C@](C)(O)[C@H]1[C@H](O)C[C@@]2(C)[C@@H]3CC=C4[C@@H](C[C@H](O)[C@@H](O)C4(C)C)[C@]3(C)C(=O)C[C@]12C	1.09 µg/mL

Field: next compound
Param item = `C[C@H](CCC=C(CO)CO)[C@H]1CC[C@@]2(C)[C@@H]3CC=C4[C@@H](CC[C@H](O[C@@H]5O[C@H](CO)[C@@H](O)[C@H](O)[C@H]5O)C4(C)C)[C@]3(C)[C@H](O)C[C@]12C` ; retrieve measured IC50.
3.84 µg/mL
